Tested on: Common Lambsquarters
test_method_notes: post-emergence herbicidal activity, greenhouse
Assay type: in vivo
condition_parameters: Table III; 4 WAT; 5.6 kg/h; formulated in anhydrous tetrahydrofuran
Reported Plant Response Index (E) values are given for each entry in this list.
value_type: Plant Response Index (E)

{"compound": "CCCCOC(=O)CNCP(=O)(O)O[Si](c1ccccc1)(c1ccccc1)C(C)(C)C [Ex. 6]", "measured": "4 (100% inhibition)"}
{"compound": "CCOC(=O)CNCP(=O)(O)O[Si](c1ccccc1)(c1ccccc1)C(C)(C)C [Ex. 7]", "measured": "4 (100% inhibition)"}
{"compound": "CC(C)(C)[Si](OP(=O)(O)CNCC(=O)O)(c1ccccc1)c1ccccc1 [Ex. 5]", "measured": "1 (25-49% inhibition)"}
{"compound": "CCCCOC(=O)CNCP(=O)(O)O[Si](C)(C)C(C)(C)C [Ex. 3]", "measured": "4 (100% inhibition)"}

----------
Test system: Cocklebur
test_method_notes: post-emergence herbicidal activity, greenhouse
Assay type: in vivo
condition_parameters: Table III; 4 WAT; 5.6 kg/h; formulated in anhydrous tetrahydrofuran
Collected Plant Response Index (B) values appear next to each entry.
value_type: Plant Response Index (B)

{"chemical_smiles": "CC(C)(C)[Si](OP(=O)(O)CNCC(=O)O)(c1ccccc1)c1ccccc1", "value_type": "Plant Response Index (B)", "measured": "0 (0-24% inhibition)"}
{"chemical_smiles": "CCCCOC(=O)CNCP(=O)(O)O[Si](c1ccccc1)(c1ccccc1)C(C)(C)C", "value_type": "Plant Response Index (B)", "measured": "2 (50-74% inhibition)"}
{"chemical_smiles": "CCCCOC(=O)CNCP(=O)(O)O[Si](C)(C)C(C)(C)C", "value_type": "Plant Response Index (B)", "measured": "3 (75-99% inhibition)"}
{"chemical_smiles": "CCOC(=O)CNCP(=O)(O)O[Si](c1ccccc1)(c1ccccc1)C(C)(C)C", "value_type": "Plant Response Index (B)", "measured": "3 (75-99% inhibition)"}

----------
Tested on: Soybean
test_method_notes: post-emergence herbicidal activity, greenhouse
Format: in vivo
condition_parameters: Table III; 2 WAT; 5.6 kg/h
Plant Response Index (L) for assorted molecules

{"molecule": "CCCCOC(=O)CNCP(=O)(O)O[Si](c1ccccc1)(c1ccccc1)C(C)(C)C [Ex. 6]", "target_or_system": "Soybean", "Plant Response Index (L)": "1 (25-49% inhibition)"}
{"molecule": "CCOC(=O)CNCP(=O)(O)O[Si](c1ccccc1)(c1ccccc1)C(C)(C)C [Ex. 7]", "target_or_system": "Soybean", "Plant Response Index (L)": "2 (50-74% inhibition)"}
{"molecule": "CC(C)OC(=O)CNCP(=O)(O[Si](c1ccccc1)(c1ccccc1)C(C)(C)C)O[Si](c1ccccc1)(c1ccccc1)C(C)(C)C [Ex. 1]", "target_or_system": "Soybean", "Plant Response Index (L)": "1 (25-49% inhibition)"}
{"molecule": "CC(C)(C)[Si](C)(C)OP(=O)(CNCC(=O)OCCc1ccccc1)O[Si](C)(C)C(C)(C)C [Ex. 10, Hydrate]", "target_or_system": "Soybean", "Plant Response Index (L)": "0 (0-24% inhibition)"}
{"molecule": "CC(C)OC(=O)CNCP(=O)(O)O[Si](c1ccccc1)(c1ccccc1)C(C)(C)C [Ex. 2]", "target_or_system": "Soybean", "Plant Response Index (L)": "2 (50-74% inhibition)"}
